Target sequence: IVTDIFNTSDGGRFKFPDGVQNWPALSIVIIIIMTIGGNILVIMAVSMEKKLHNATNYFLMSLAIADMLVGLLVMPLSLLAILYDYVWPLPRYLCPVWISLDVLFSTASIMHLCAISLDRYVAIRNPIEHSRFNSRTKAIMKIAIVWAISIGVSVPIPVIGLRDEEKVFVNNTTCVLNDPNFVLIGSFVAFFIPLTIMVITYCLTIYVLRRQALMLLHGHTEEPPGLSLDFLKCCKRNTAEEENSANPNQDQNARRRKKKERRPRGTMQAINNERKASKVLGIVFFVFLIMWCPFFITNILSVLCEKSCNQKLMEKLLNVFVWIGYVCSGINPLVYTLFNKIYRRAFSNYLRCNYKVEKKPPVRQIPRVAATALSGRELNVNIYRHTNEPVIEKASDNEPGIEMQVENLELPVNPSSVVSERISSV

>  <molecule>
CNC[C@H]1C[C@@H]1c1cc(F)ccc1OC.Cl [(+)-15a]

>  <Ki / nM>
81

$$$$

* * *

target_of_assay: UniProt:P28335
protocol_text: Calcium flux assay
pEC50: −log10 of the molar value.
assay_metric: pEC50

>  <compound>
COc1ccc(F)cc1C1CC1CNCC1CC1.Cl (racemic) [(±)-17]

>  <target_of_assay>
UniProt:P28335

>  <assay_metric>
pEC50

>  <meas_value>
< 6.52

$$$$

* * *

target_of_assay: CYP3A4 (Homo sapiens, UniProt P08684)
Sequence (P08684 whole entry): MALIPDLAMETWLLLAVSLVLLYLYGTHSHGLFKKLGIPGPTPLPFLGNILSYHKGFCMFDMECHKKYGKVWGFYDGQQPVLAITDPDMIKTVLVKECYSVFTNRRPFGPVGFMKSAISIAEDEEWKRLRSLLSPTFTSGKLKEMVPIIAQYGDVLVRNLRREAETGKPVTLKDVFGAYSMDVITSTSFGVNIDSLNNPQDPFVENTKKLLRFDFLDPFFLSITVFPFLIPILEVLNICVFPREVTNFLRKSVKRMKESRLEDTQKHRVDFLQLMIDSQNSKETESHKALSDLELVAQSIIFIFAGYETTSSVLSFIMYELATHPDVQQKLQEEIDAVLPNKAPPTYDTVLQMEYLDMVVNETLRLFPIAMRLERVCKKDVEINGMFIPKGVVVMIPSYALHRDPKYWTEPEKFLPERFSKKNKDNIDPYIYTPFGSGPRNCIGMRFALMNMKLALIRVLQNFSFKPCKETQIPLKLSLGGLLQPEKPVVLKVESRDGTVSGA
protocol_text: in vitro
measurement_setup: human liver microsomes, probe midazolam

>  <molecule>
COc1ccccc1CNC[C@H]1C[C@@H]1c1cc(F)ccc1OC.Cl [(+)-19]

>  <target_of_assay>
CYP3A4 (Homo sapiens, UniProt P08684)

>  <inhibition at 10 µM>
> 50%

$$$$

Where these numbers come from: paper PMC7374938
